- study-target: Mitogen-activated protein kinase 14 (Homo sapiens)
- Sequence (Q16539 whole entry, the tested form may be a part): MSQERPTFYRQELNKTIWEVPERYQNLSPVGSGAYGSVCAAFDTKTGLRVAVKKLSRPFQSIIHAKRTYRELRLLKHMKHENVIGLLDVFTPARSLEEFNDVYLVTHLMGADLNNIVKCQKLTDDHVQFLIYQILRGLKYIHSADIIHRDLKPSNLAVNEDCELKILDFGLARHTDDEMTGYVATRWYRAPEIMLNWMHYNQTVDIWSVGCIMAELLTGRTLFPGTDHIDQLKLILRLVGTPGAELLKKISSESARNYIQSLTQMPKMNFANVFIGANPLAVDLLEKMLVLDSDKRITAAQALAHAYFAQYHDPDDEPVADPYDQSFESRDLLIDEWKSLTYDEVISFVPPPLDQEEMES
- protocol-details: Inhibition of GST-fused p38alpha
assay-metric: IC50

I'm curious: which IC50 was measured for Cc1cccc(-c2nc(Nc3cccc(C(N)=O)c3)c3ccccc3n2)n1 tested on Mitogen-activated protein kinase 14 (Homo sapiens)?
> 10 µM

Record lookup: for Mitogen-activated protein kinase 14 (Homo sapiens), what IC50 belongs to Cc1cccc(-c2nc(Nc3ccc4c(cnn4C)c3)c3ccccc3n2)n1 ?
> 10 µM

Param readout= IC50; system= Mitogen-activated protein kinase 14 (Homo sapiens); entry= Cc1cc(Nc2nc(-c3cccc(C)n3)nc3ccccc23)ccn1 ; returns value.
> 10 µM

Mitogen-activated protein kinase 14 (Homo sapiens) / IC50 / Cc1cccc(-c2nc(Nc3ccncc3)c3ccccc3n2)n1 : value?
6.72 µM

Please provide the recorded IC50 for Clc1cccc(-c2nc(Nc3ccncc3)c3ccccc3n2)c1 , tested on Mitogen-activated protein kinase 14 (Homo sapiens).
> 15 µM

Provide value of IC50 for this record tested with Mitogen-activated protein kinase 14 (Homo sapiens): Cc1cccc(-c2nc(Nc3ccc4ncsc4c3)c3ccccc3n2)n1
> 10 µM

API: value(readout= IC50, system= Mitogen-activated protein kinase 14 (Homo sapiens), query= Cc1csc(-c2nc(Nc3ccncc3)c3ccccc3n2)n1 )
> 15 µM

Query the reported IC50 for Mitogen-activated protein kinase 14 (Homo sapiens); item: Cc1cccc(-c2nc(Nc3ccc4[nH]ncc4c3)c3ccccc3n2)n1
> 10 µM

Which measured IC50 belongs to Cc1cccc(-c2nc(Nc3ccncn3)c3ccccc3n2)n1 , tested on Mitogen-activated protein kinase 14 (Homo sapiens)?
> 10 µM

Value wanted: IC50 (Mitogen-activated protein kinase 14 (Homo sapiens)) of entry c1ccc(-c2nc(Nc3ccncc3)c3ccccc3n2)cc1
1.27 µM

Test system Mitogen-activated protein kinase 14 (Homo sapiens); read-out IC50; what value for Cc1cccc(-c2nc(Nc3ccc4[nH]nnc4c3)c3ccccc3n2)n1 ?
> 10 µM

###

- protocol-details: Bioavailability in rat at 5 mg/kg, po
- Format: ADME, organism-based
- test-conditions: in vivo
assay-metric: bioavailability (%)
Report the value in % with no unit label.

Item Cc1cccc(-c2nc(Nc3ccncc3)c3ccccc3n2)n1 has what recorded bioavailability?
40

###

- study-target: UniProt:P36897
- Sequence (P36897 whole entry): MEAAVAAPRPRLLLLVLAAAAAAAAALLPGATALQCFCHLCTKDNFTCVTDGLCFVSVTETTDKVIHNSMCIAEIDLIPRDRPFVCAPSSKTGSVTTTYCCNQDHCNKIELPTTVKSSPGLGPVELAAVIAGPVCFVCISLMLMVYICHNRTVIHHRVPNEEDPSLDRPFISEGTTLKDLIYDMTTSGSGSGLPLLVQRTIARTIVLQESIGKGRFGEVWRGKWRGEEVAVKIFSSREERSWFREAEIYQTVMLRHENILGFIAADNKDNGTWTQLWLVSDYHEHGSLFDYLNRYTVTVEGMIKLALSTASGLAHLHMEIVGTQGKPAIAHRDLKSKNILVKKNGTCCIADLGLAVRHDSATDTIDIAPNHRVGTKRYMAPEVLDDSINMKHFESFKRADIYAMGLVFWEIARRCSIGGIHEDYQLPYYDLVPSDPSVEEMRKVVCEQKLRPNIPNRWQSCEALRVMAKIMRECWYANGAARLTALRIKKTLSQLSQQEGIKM
- protocol-details: Inhibition of TGF-beta-induced ALK5 in human HepG2 cells by luciferase assay
- Type: cell-based
assay-metric: IC50

Bench note: what IC50 did Clc1cccc(-c2nc(Nc3ccncc3)c3ccccc3n2)c1 show?
1610 nM

# IC50 lookup, item Cc1cccc(-c2nc(Nc3ccncc3)c3sccc3n2)n1
60 nM

Given the entry Cc1cccc(-c2nc(Nc3ccncc3)c3ccccc3n2)n1 , report its measured IC50.
95 nM

Give the measured IC50 of Cc1cccc(-c2nc(Nc3ccc4c(cnn4C)c3)c3ccccc3n2)n1 .
794 nM

Which value of IC50 has been reported for Cc1cccc(-c2nc(C)cc(Nc3ccncc3)n2)n1 in the records?
745 nM

// query IC50 value for entry Cc1cccc(-c2nc(Nc3ccncc3)c3c(C)csc3n2)n1
318 nM

Which IC50 value is on record for Cc1cccc(-c2nc(Nc3ccncn3)c3ccccc3n2)n1 ?
60 nM

Given the entry Cc1cccc(-c2nc(Nc3ccc4[nH]nnc4c3)c3ccccc3n2)n1 , report its measured IC50.
> 5000 nM

What does the record list as IC50 for Cc1cccc(-c2nc(Nc3ccc4[nH]ncc4c3)c3ccccc3n2)n1 ?
90 nM

Could you tell me which IC50 is on file for c1ccc(-c2nc(Nc3ccncc3)c3ccccc3n2)cc1 ?
2470 nM

For the molecule shown here, Cc1csc(-c2nc(Nc3ccncc3)c3ccccc3n2)n1 , give the reported IC50.
342 nM

State the recorded IC50 for this entry: Cc1cccc(-c2nc(Nc3ccc4ncsc4c3)c3ccccc3n2)n1
> 5000 nM

Fill in the blank: the reported IC50 of Cc1cc(Nc2nc(-c3cccc(C)n3)nc3ccccc23)ccn1 is ____.
1020 nM

State the recorded IC50 for this entry: Cc1cccc(-c2nc(Nc3cccc(C(N)=O)c3)c3ccccc3n2)n1
545 nM

###

- protocol-details: AUC in rat at 5 mg/kg, po
- Assay type: ADME, organism-based
- Set-up: dose 5 mg/kg, route oral
- test-conditions: plasma
assay-metric: AUC (ng·h/mL)
Number in ng·h/mL, nothing else.

# input compound: Cc1cccc(-c2nc(Nc3ccncc3)c3ccccc3n2)n1 ; wanted: its AUC
524

###

- study-target: TGF-beta receptor type-1 (Homo sapiens)
- protocol-details: Inhibition of human ALK5 kinase expressed in Sf9 cells
Hi there, I'd appreciate the recorded pIC50 for every entry that follows.
Friendly reminder that pIC50 comes from taking -log10 of the concentration in mol/L.

Please look up its pIC50: Cc1cccc(-c2nc(Nc3ccc4[nH]nnc4c3)c3ccccc3n2)n1
5.43

Would you kindly share the measured pIC50 for Cc1cc(Nc2nc(-c3cccc(C)n3)nc3ccccc23)ccn1 ?
6.70

Could you tell me which pIC50 is on file for Clc1cccc(-c2nc(Nc3ccncc3)c3ccccc3n2)c1 ?
7.31

Requested field: pIC50. Item: Cc1cccc(-c2nc(Nc3ccncn3)c3ccccc3n2)n1
7.40

Reported pIC50, compound Cc1cccc(-c2nc(C)cc(Nc3ccncc3)n2)n1 : ____
7.03

Fill in the blank: the reported pIC50 of Cc1cccc(-c2nc(Nc3ccncc3)c3ccccc3n2)n1 is ____.
7.60

I would be grateful if you could share the reported pIC50 for Cc1cccc(-c2nc(Nc3ccc4c(cnn4C)c3)c3ccccc3n2)n1 .
6.23

Using the record for Cc1cccc(-c2nc(Nc3ccc4[nH]ncc4c3)c3ccccc3n2)n1 , report its pIC50.
7.60

Can you look up the measured pIC50 of Cc1cccc(-c2nc(Nc3cccc(C(N)=O)c3)c3ccccc3n2)n1 for me?
6.58

Please give the measured pIC50 for this compound: Cc1cccc(-c2nc(Nc3ccncc3)c3c(C)csc3n2)n1
7.80

Would you mind telling me what pIC50 value was observed for Cc1cccc(-c2nc(Nc3ccncc3)c3sccc3n2)n1 ?
7.66

###

Assign IC50 to each entry below.
- study-target: TGF-beta receptor type-1 (Homo sapiens, UniProt P36897)
- protocol-details: Inhibition of human ALK5 kinase expressed in Sf9 cells
Number only, in nM; omit the unit.

Would you mind telling me what IC50 value was observed for Cc1cccc(-c2nc(Nc3ccc4ncsc4c3)c3ccccc3n2)n1 ?
646

IC50 lookup needed for Cc1csc(-c2nc(Nc3ccncc3)c3ccccc3n2)n1 , thanks.
20

Can you look up the measured IC50 of c1ccc(-c2nc(Nc3ccncc3)c3ccccc3n2)cc1 for me?
194
